The values you see were collected from the Immune Epitope Database (IEDB).

target: HLA-A*02:11; experiment: IEDB peptide-MHC binding, purified MHC/direct/fluorescence; filed as Kd, often an IC50 or EC50 that approximates it; bounds were set here for any values at or beyond the usual limits of such assays; details: source organism: Salmonella enterica subsp. enterica serovar Typhimurium
pKd: −log10 of the molar value.
READOUT: pKd

Exam item: Value lookup for pKd; key = WPVMQWLTA
Marked response: ≤ 4.70

---

target: HLA-A*69:01; assay: IEDB peptide-MHC binding, purified MHC/direct/fluorescence; filed as Kd, often an IC50 or EC50 that approximates it; bounds were set here for any values at or beyond the usual limits of such assays; conditions: source organism: Aracatuba virus
READOUT: Kd

Exam item: Value lookup for Kd; key = LLLLISLVY
Marked response: ≥ 20 µM

---

target: HLA-B*39:01; assay: IEDB peptide-MHC binding, purified MHC/competitive/fluorescence; filed as Kd, often an IC50 or EC50 that approximates it; bounds were set here for any values at or beyond the usual limits of such assays; conditions: source organism: Lechiguanas virus
pKd: −log10 of the molar value.
READOUT: pKd

Exam item: Value lookup for pKd; key = LQPSDTLLF
Marked response: ≤ 4.70

---

target: HLA-B*54:01; experiment: IEDB peptide-MHC binding, purified MHC/competitive/radioactivity; filed as Kd, often an IC50 or EC50 that approximates it; bounds were set here for any values at or beyond the usual limits of such assays; conditions: source organism: SARS coronavirus Tor2
Can you tell me Kd for the items I'm about to list?

Exam item: Value lookup for Kd; key = PPALNCYWPL
Marked response: ≥ 37.9 µM

Exam item: Again, but for SPKFTTSLSL
Marked response: ≥ 28.8 µM

Exam item: Again, but for RPLMESELV
Marked response: ≥ 47.5 µM

---

molecular target: HLA-A*29:02; experiment: IEDB peptide-MHC binding, purified MHC/direct/fluorescence; filed as Kd, often an IC50 or EC50 that approximates it; bounds were set here for any values at or beyond the usual limits of such assays; conditions: source organism: Mammarenavirus machupoense
READOUT: pKd
Friendly reminder that pKd comes from taking -log10 of the concentration in mol/L.

Exam item: Value lookup for pKd; key = ESSINISGY
Marked response: 6.64

---

target: HLA-B*40:01; test: IEDB peptide-MHC binding, purified MHC/direct/fluorescence; filed as Kd, often an IC50 or EC50 that approximates it; bounds were set here for any values at or beyond the usual limits of such assays; details: source organism: Influenza A virus (A/camel/Mongolia/1982(H1N1))
READOUT: Kd

Exam item: Value lookup for Kd; key = HIPEVCLKW
Marked response: ≥ 20 µM

---

molecular target: HLA-B*46:01; experiment: IEDB peptide-MHC binding, purified MHC/direct/fluorescence; filed as Kd, often an IC50 or EC50 that approximates it; bounds were set here for any values at or beyond the usual limits of such assays; details: source organism: Influenza A virus (A/goose/Hong Kong/8/1976(H1N1))
pKd: −log10 of the molar value.
READOUT: pKd

Exam item: Missing value: pKd, HLA-B*46:01, entry KTTYWWDGL . Fill in?
Marked response: ≤ 4.70

---

target: HLA-B*15:01; assay: IEDB peptide-MHC binding, purified MHC/direct/fluorescence; filed as Kd, often an IC50 or EC50 that approximates it; bounds were set here for any values at or beyond the usual limits of such assays; conditions: source organism: Salmonella enterica subsp. enterica serovar Typhimurium
READOUT: Kd
A complete answer gives the number and then names the unit.

Exam item: Value lookup for Kd; key = WPVMQWLTA
Marked response: 8 µM

---

molecular target: HLA-B*54:01; assay: IEDB peptide-MHC binding, purified MHC/competitive/radioactivity; filed as Kd, often an IC50 or EC50 that approximates it; bounds were set here for any values at or beyond the usual limits of such assays; details: source organism: Triticum aestivum
READOUT: Kd

Exam item: Value lookup for Kd; key = QPQQLPQF
Marked response: ≥ 87.7 µM

Exam item: Again, but for YPLGQGSF
Marked response: ≥ 53.8 µM

Exam item: Again, but for NPQAQGSV
Marked response: 10.9 µM

Exam item: Again, but for QPFLQPQLPY
Marked response: ≥ 46.6 µM

---

biological target: HLA-B*51:01; assay: IEDB peptide-MHC binding, purified MHC/competitive/fluorescence; filed as Kd, often an IC50 or EC50 that approximates it; bounds were set here for any values at or beyond the usual limits of such assays; conditions: source organism: Orthohantavirus tulaense
READOUT: Kd

Exam item: Value lookup for Kd; key = FMSRKLHRY
Marked response: ≥ 20 µM

---

target: HLA-A*03:01; assay: IEDB peptide-MHC binding, purified MHC/direct/fluorescence; filed as Kd, often an IC50 or EC50 that approximates it; bounds were set here for any values at or beyond the usual limits of such assays; settings: source organism: Influenza A virus (A/camel/Mongolia/1982(H1N1))
pKd: −log10 of the molar value.
READOUT: pKd

Exam item: Value lookup for pKd; key = HIPEVCLKW
Marked response: ≤ 4.70

---

target: HLA-B*27:05; experiment: IEDB peptide-MHC binding, purified MHC/direct/fluorescence; filed as Kd, often an IC50 or EC50 that approximates it; bounds were set here for any values at or beyond the usual limits of such assays; conditions: source organism: Giardia intestinalis
pKd: −log10 of the molar value.
READOUT: pKd

Exam item: Missing value: pKd, HLA-B*27:05, entry GPRRAAWRI . Fill in?
Marked response: ≤ 4.70

---

target: HLA-A*31:01; assay: IEDB peptide-MHC binding, purified MHC/competitive/radioactivity; filed as Kd, often an IC50 or EC50 that approximates it; bounds were set here for any values at or beyond the usual limits of such assays; conditions: source organism: Vaccinia virus WR
Can you tell me pKd for the items I'm about to list?
Friendly reminder that pKd comes from taking -log10 of the concentration in mol/L.

Exam item: Missing value: pKd, HLA-A*31:01, entry ILKKLSSIK . Fill in?
Marked response: 5.50

Exam item: Again, but for NMRDLIVTFR
Marked response: 8.94

Exam item: Again, but for STQSVLCVK
Marked response: 6.94

Exam item: Again, but for KLNGAMVEY
Marked response: 5.93

Exam item: Again, but for KIVNGVLSR
Marked response: 5.85

Exam item: Again, but for KAFNHASVK
Marked response: 7.53

Exam item: Again, but for IILSKIPYLR
Marked response: 8.32

Exam item: Again, but for YLSTFNMWR
Marked response: 7.19

Exam item: Again, but for DSFLRKIGDK
Marked response: 5.45

Exam item: Again, but for IQTSVNTVVR
Marked response: 6.44

Exam item: Again, but for STYSDICSK
Marked response: 7.10

Exam item: Again, but for FSLESDSIK
Marked response: 6.02

Exam item: Again, but for LLHCVTESY
Marked response: 4.90

---

target: HLA-C*07:02; assay: IEDB peptide-MHC binding, purified MHC/direct/fluorescence; filed as Kd, often an IC50 or EC50 that approximates it; bounds were set here for any values at or beyond the usual limits of such assays; conditions: source organism: Homo sapiens
READOUT: Kd (µM)
Please state the figure in µM; there is no need to write the unit.

Exam item: Value lookup for Kd; key = FPLWWVSSI
Marked response: 2.3

---

target: HLA-B*07:02; assay: IEDB peptide-MHC binding, purified MHC/direct/fluorescence; filed as Kd, often an IC50 or EC50 that approximates it; bounds were set here for any values at or beyond the usual limits of such assays; settings: source organism: Yersinia pestis
READOUT: Kd

Exam item: Value lookup for Kd; key = FMSLQSGDV
Marked response: ≥ 20 µM

Exam item: Again, but for FLPPQIPVI
Marked response: ≥ 20 µM

---

target: HLA-B*53:01; assay: IEDB peptide-MHC binding, purified MHC/competitive/radioactivity; filed as Kd, often an IC50 or EC50 that approximates it; bounds were set here for any values at or beyond the usual limits of such assays; conditions: source organism: SARS coronavirus Tor2
pKd: −log10 of the molar value.
READOUT: pKd

Exam item: Value lookup for pKd; key = RPLMESELV
Marked response: ≤ 4.37

Exam item: Again, but for PPALNCYWPL
Marked response: ≤ 4.16

Exam item: Again, but for SPKFTTSLSL
Marked response: 5.89

---

molecular target: HLA-A*68:02; test: IEDB peptide-MHC binding, purified MHC/competitive/fluorescence; filed as Kd, often an IC50 or EC50 that approximates it; bounds were set here for any values at or beyond the usual limits of such assays; conditions: source organism: Escherichia coli str. K-12 substr. MG1655
READOUT: Kd (µM)
Please state the figure in µM; there is no need to write the unit.

Exam item: Value lookup for Kd; key = NLPSKPVWL
Marked response: 3.54

---

target: HLA-B*27:03; assay: IEDB peptide-MHC binding, purified MHC/competitive/fluorescence; filed as Kd, often an IC50 or EC50 that approximates it; bounds were set here for any values at or beyond the usual limits of such assays; details: source organism: Lechiguanas virus
READOUT: Kd

Exam item: Value lookup for Kd; key = LQPSDTLLF
Marked response: ≥ 20 µM
